- experimental.system: Free fatty acid receptor 1 (Mus musculus, UniProt Q76JU9)
- Sequence (Q76JU9 whole entry): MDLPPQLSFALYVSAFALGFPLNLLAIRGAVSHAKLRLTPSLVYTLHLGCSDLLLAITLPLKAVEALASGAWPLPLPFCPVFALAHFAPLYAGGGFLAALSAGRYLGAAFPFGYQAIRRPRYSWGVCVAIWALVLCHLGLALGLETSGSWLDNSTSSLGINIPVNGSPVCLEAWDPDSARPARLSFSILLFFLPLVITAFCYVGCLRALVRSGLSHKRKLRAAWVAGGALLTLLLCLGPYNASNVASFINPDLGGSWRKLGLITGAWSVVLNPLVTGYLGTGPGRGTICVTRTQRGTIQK
- test.method.notes: Agonist activity at mouse GPR40 expressed in CHO-A12 cells assessed as increase in intracellular calcium flux measured for 100 secs by FLIPR assay
- Type: functional, cell-based
pEC50: −log10 of the molar value.
metric: pEC50

Look over these answered cases.
{"compound": "O=C(O)C[C@H]1CCN1c1ccc(OCc2ccc(Cl)cc2Cl)cc1", "experimental.system": "Free fatty acid receptor 1 (Mus musculus, UniProt Q76JU9)", "metric": "pEC50", "result": "< 4.77"}
{"compound": "Cc1ccccc1Cc1ccc(N2C[C@@H](c3ccccc3)C[C@H]2CC(=O)O)cc1", "experimental.system": "Free fatty acid receptor 1 (Mus musculus, UniProt Q76JU9)", "metric": "pEC50", "result": "< 4.48"}
{"compound": "O=C(O)C1CCN(c2ccc(OCc3ccc(Cl)cc3Cl)cc2)C1 (centres undefined)", "experimental.system": "Free fatty acid receptor 1 (Mus musculus, UniProt Q76JU9)", "metric": "pEC50", "result": "< 4.80"}

# input Any idea what its pEC50 is? The compound is `O=C(O)C[C@@H]1CCCN1c1ccc(Oc2cccc(Cl)c2)cc1`
# output < 4.80
